Values were extracted from ChEMBL document CHEMBL4219151.

Method Summary: Solubility of the compound at pH 7.4 after 18 hrs by UV-spectroscopy
Type: physicochemical
Particulars: buffer
Below, each entry is listed alongside its reported solubility at 18 h.

Chem Smiles	Measurement Name	Recorded Value
O=C(Nc1cccc(C(F)(F)F)c1)N(Cc1ccccc1)C1CCN(Cc2nccs2)CC1	solubility at 18 h	6.3 µM

Enquiry: Entry under review: O=C(Nc1cccc(C(F)(F)F)c1)N(Cc1ccccc1)C1CCN(CC2CCCC2)CC1 . Reported solubility at 18 h?
Return: 48 µM

Enquiry: Entry under review: Cn1nccc1-c1cccc(NC(=O)NC2CCN(Cc3ccccc3)CC2)c1 . Reported solubility at 18 h?
Return: 78 µM

Enquiry: Entry under review: CCCS(=O)(=O)N1CCC(N(Cc2ccccc2)C(=O)Nc2cccc(C(F)(F)F)c2)CC1 . Reported solubility at 18 h?
Return: 0.5 µM
